Source of measurements: patent US20240150293A1

What pKi was measured for each of the following?
target: Mcl-1 protein (UniProtKB Q07820) (Homo sapiens (Human), UniProt Q07820); test: Inhibition of Mcl-1 by the fluorescence polarisation assay (Example A, Method A); conditions: fluorescence polarization assay
Sequence (Q07820 whole entry): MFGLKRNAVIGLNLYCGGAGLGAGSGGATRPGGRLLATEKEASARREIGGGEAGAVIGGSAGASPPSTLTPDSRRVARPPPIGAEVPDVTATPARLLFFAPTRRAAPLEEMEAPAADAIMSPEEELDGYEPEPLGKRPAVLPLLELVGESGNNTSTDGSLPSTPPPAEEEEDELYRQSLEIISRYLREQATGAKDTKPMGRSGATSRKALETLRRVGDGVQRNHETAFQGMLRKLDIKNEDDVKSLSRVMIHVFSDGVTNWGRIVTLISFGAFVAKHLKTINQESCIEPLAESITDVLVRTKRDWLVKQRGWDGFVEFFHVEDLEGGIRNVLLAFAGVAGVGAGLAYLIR
In simple prose, pKi is minus the logarithm base ten of a concentration in moles per litre.

Input: Reported pKi for O=C(O)[C@]1(Nc2cccc(Cl)c2)CC[C@]2(CC1)C(CCCOc1ccnc3ccsc13)=Cc1ccccc12 [Example 442] : what is it?
Output: 6.97

Input: Quick one: O=C(O)C1(Nc2cccc(Br)c2)CCC2(CC1)C(c1cc(Cl)cc(Cl)c1)=Cc1ccccc12 (single isomer, unassigned) [Example 236]
Output: 4.57

Input: Quick one: O=C(O)[C@]1(Nc2cccc(Cl)c2)CC[C@@]2(CC1)c1ccccc1CC2c1cccc(OCc2ccncc2)c1 (single isomer, unassigned) [Example 373]
Output: 6.66

Input: Quick one: O=C(O)[C@]1(Nc2cccc(Cl)c2)CC[C@@]2(CC1)c1ccccc1CC2c1ccc(Cl)cc1 (single isomer, unassigned) [Example 320]
Output: 5.16

Input: Quick one: COc1ccc2c(c1)[C@]1(CC[C@@](Nc3cccc(Cl)c3)(C(=O)O)CC1)C(c1cccc(Oc3ccccc3)c1)C2 (single isomer, unassigned) [Example 378]
Output: 7.20

Input: Quick one: C[C@@H](COc1ncnc2c1C(C)(C)CC2)CC1Cc2ccccc2[C@]12CC[C@@](Nc1cccc(Cl)c1)(C(=O)O)CC2 (stereo partly drawn) [Example 595]
Output: 7.52

* * *

target: Mcl-1 protein (UniProtKB Q07820) (Homo sapiens (Human), UniProt Q07820); experiment: Inhibition of Mcl-1 by the fluorescence polarisation assay (Example A, Method A); details: fluorescence polarization assay
What Ki was measured for each of the following?

Input: Reported Ki for O=C(O)[C@]1(Nc2cccc(Cl)c2)CC[C@@]2(CC1)c1ccccc1[C@@H]1C[C@@H]12 (single isomer, unassigned) [Example 108] : what is it?
Output: 5730 nM

Input: Quick one: O=C(O)[C@]1(Nc2cccc(Cl)c2)CC[C@]2(CC1)C(/C=C/CC1CCCC1)=Cc1ccccc12 [Example 152]
Output: 609 nM

Input: Quick one: O=C(O)[C@]1(Nc2cccc(Cl)c2)CC[C@]2(CC1)C(c1ccc(OCc3ccccc3)cc1)=Cc1ccccc12 [Example 309]
Output: 732 nM

Input: Quick one: COCC(COC)CC1=Cc2ccccc2[C@]12CC[C@@](Nc1cccc(Cl)c1)(C(=O)O)CC2 [Example 493]
Output: 1780 nM

Input: Quick one: COc1cccc(N2C(=O)c3ccccc3[C@]23CC[C@@](Nc2cccc(Br)c2)(C(=O)O)CC3)c1 [Example 30]
Output: 9250 nM

Input: Quick one: CCOc1cccc(C2=Cc3ccccc3[C@]23CC[C@@](Nc2cccc(Cl)c2)(C(=O)O)CC3)c1 [Example 313]
Output: 385 nM

Input: Quick one: O=C(O)[C@]1(Nc2cccc(Cl)c2)CC[C@@]2(CC1)c1ccccc1CC2CCCOc1ccnc2ccccc12 (some centres unmarked) [Example 444]
Output: 85.2 nM

Input: Quick one: O=C(O)[C@]1(Nc2cccc(Cl)c2)CC[C@]2(CC1)C(C1=CCCC1)=Cc1ccccc12 [Example 277]
Output: 6090 nM

Input: Quick one: CN1c2ccc(-c3ccccc3)cc2[C@]2(CC[C@](Nc3cccc(Br)c3)(C(=O)O)CC2)C1=O [Example 10]
Output: 10700 nM

Input: Quick one: C[C@@H](COc1ccnc2c1CCCO2)C[C@H]1Cc2ccccc2[C@]12CC[C@@](Nc1cccc(Cl)c1)(C(=O)O)CC2 [Example 635]
Output: 44.8 nM

Input: Quick one: O=C(O)[C@]1(Nc2cccc(Cl)c2)CC[C@]2(CC1)C(C#Cc1ccccn1)=Cc1ccccc12 [Example 170]
Output: 1920 nM

Input: Quick one: C[C@@H](COc1ccnc2ccsc12)C[C@@H]1Cc2ccccc2[C@]12CC[C@@](Nc1cccc(Cl)c1)(C(=O)O)CC2 [Example 590]
Output: 19.2 nM

Input: Quick one: O=C(O)[C@]1(Nc2cccc(Cl)c2)CC[C@@]2(CC1)c1ccccc1CC2c1cccc2ccoc12 (single isomer, unassigned) [Example 293]
Output: 499 nM

Input: Quick one: CC1N(C)c2ccccc2[C@]12CC[C@@](Nc1cccc(Br)c1)(C(=O)O)CC2 (some centres unmarked) [Example 24]
Output: 19900 nM

* * *

target: Cy5-labelled Mcl1 (amino acids 171-321) C286S protein (UniProtKB Q07820) (Homo sapiens (Human), UniProt Q07820, C286S); experiment: Inhibition of Mcl-1 by the fluorescence quenching assay (Example A, Method B); format: binding
Sequence (Q07820 171-321 C286S): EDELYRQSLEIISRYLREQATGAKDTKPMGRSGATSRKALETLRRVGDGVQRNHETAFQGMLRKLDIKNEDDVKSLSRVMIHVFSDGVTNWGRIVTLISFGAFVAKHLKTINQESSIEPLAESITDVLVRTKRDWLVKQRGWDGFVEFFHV
What Ki was measured for each of the following?
Could you give me the number in pM? Just the number is fine.

Input: Reported Ki for `COc1cc2c(cc1OC)[C@]1(CC[C@@](Nc3cccc(Cl)c3)(C(=O)O)CC1)[C@@H](C[C@@H](C)COc1ccnc3c1[C@H](C)CCC3)C2` : what is it?
Output: 438

Input: Quick one: Cc1cccc2c1CC(C[C@@H](C)COc1ccnc3c1[C@H](C)CCC3)[C@]21CC[C@](Nc2cccc(Cl)c2)(C(=O)O)CC1 (single isomer, unassigned) [Example 754]
Output: 1230

Input: Quick one: `Cc1cc2c(cc1C)[C@]1(CC[C@@](Nc3cccc(Cl)c3)(C(=O)O)CC1)[C@H](C[C@@H](C)COc1ccnc3ccsc13)C2`
Output: 1980

Input: Quick one: COC(=O)OC(C)OC(=O)[C@]1(Nc2cccc(Cl)c2)CC[C@@]2(CC1)c1cc3c(cc1C[C@@H]2C[C@@H](C)COc1ccnc2c1[C@H](C)CCC2)OCO3 (some centres unmarked)
Output: 1000

Input: Quick one: C[C@@H]1CCCc2nccc(OCC(CC3Cc4ccccc4[C@]34CC[C@@](Nc3cccc(Cl)c3)(C(=O)O)CC4)C(F)F)c21 (single isomer, unassigned) [Example 519]
Output: 909

Input: Quick one: `C[C@@H](COc1ccnc2c1[C@H](C)CCC2)C[C@H]1Cc2cc3c(cc2[C@]12CC[C@@](Nc1cccc(Cl)c1)(C(=O)O)CC2)OCCO3`
Output: 33.7

Input: Quick one: `C[C@@H](COc1ccnc2c1[C@H](C)CCC2)C[C@H]1Cc2ccc(F)cc2[C@]12CC[C@@](Nc1cccc(Cl)c1)(C(=O)O)CC2`
Output: 661

Input: Quick one: C[C@@H](COc1ccnc2c1[C@H](C)CCC2)CC1Cc2c(Cl)c(Cl)ccc2[C@]12CC[C@@](Nc1cccc(Cl)c1)(C(=O)O)CC2 (single isomer, unassigned) [Example 751]
Output: 644

Input: Quick one: C[C@@H](COc1ncnc2c1[C@H](C)CC2)CC1Cc2ccccc2[C@]12CC[C@@](Nc1cccc(Cl)c1)(C(=O)O)CC2 (some centres unmarked)
Output: 5360

Input: Quick one: CC1Oc2cc3c(cc2O1)[C@]1(CC[C@@](Nc2cccc(Cl)c2)(C(=O)O)CC1)[C@@H](C[C@@H](C)COc1ccnc2c1[C@H](C)CCC2)C3 (single isomer, unassigned) [Example 966]
Output: 26.7

Input: Quick one: `C[C@@H](COc1ccnc2c1[C@H](C)CCC2)C[C@H]1Cc2cc3c(cc2[C@]12CC[C@@](Nc1cccc(Cl)c1)(C(=O)O)CC2)OCCCCO3`
Output: 47.2

* * *

What IC50 was measured for each of the following?
tested on: H929 multiple myeloma tumor line; experiment: In vitro cytotoxicity, MTT assay (Example B, Method A); format: cell-based; settings: H929 cells, 48 hours exposure, read-out: C50
Could you give me the number in µM? Just the number is fine.

Input: Reported IC50 for CC(C)C(COc1ccncc1)CC1Cc2ccccc2[C@]12CC[C@@](Nc1cccc(Cl)c1)(C(=O)O)CC2 (single isomer, unassigned) [Example 532] : what is it?
Output: 12.6

Input: Quick one: CC(C)C(COc1ccnc2ccsc12)CC1Cc2ccccc2[C@]12CC[C@@](Nc1cccc(Cl)c1)(C(=O)O)CC2 (single isomer, unassigned) [Example 523]
Output: 16.4

Input: Quick one: Cc1cc(C(C)O)cc2c1C=C(C[C@@H](C)COc1ccnc3c1[C@H](C)CCC3)[C@]21CC[C@](Nc2cccc(Cl)c2)(C(=O)O)CC1 (single isomer, unassigned) [Example 760]
Output: 0.0817

Input: Quick one: O=C(O)[C@]1(Nc2cccc(Cl)c2)CC[C@]2(CC1)C(CC(F)COc1ccnc3c1CCCC3)=Cc1ccccc12 (single isomer, unassigned) [Example 506]
Output: 2.79

* * *

What Ki was measured for each of the following?
target: Cy5-labelled Mcl1 (amino acids 171-321) C286S protein (UniProtKB Q07820) (Homo sapiens (Human), UniProt Q07820, C286S); test: Inhibition of Mcl-1 by the fluorescence quenching assay (Example A, Method B); assay type: binding
Could you give me the number in nM? Just the number is fine.

Input: Reported Ki for `COCCOc1ccc2c(c1)[C@]1(CC[C@@](Nc3cccc(Cl)c3)(C(=O)O)CC1)[C@@H](C[C@@H](C)COc1ccnc3c1[C@H](C)CCC3)C2` : what is it?
Output: 0.213

Input: Quick one: O=C(O)[C@]1(Nc2cccc(Cl)c2)CC[C@@]2(CC1)c1ccccc1CC2CC(COc1ccccc1)COc1ccnc2ccsc12 (stereo partly drawn)
Output: 4.8

Input: Quick one: `CCc1cnccc1OC[C@H](C)C[C@H]1Cc2ccccc2[C@]12CC[C@@](Nc1cccc(Cl)c1)(C(=O)O)CC2`
Output: 2.68

Input: Quick one: C[C@@H](COc1ccnc2c1CCC2F)C[C@H]1Cc2ccccc2[C@]12CC[C@@](Nc1cccc(Cl)c1)(C(=O)O)CC2 (stereo partly drawn)
Output: 8

Input: Quick one: C[C@@H](COc1ccnc2c1CCC2O)C[C@H]1Cc2ccccc2[C@]12CC[C@@](Nc1cccc(Cl)c1)(C(=O)O)CC2 (single isomer, unassigned) [Example 608]
Output: 1.62

Input: Quick one: CC1CCN(C)c2nccc(OC[C@H](C)C[C@H]3Cc4ccccc4[C@]34CC[C@@](Nc3cccc(Cl)c3)(C(=O)O)CC4)c21 (single isomer, unassigned) [Example 644]
Output: 2.8

Input: Quick one: `C[C@@H](COc1ccnc2c1[C@H](C)CCC2)C[C@@H]1Cc2ccc(-c3cc[nH]c3)cc2[C@]12CC[C@@](Nc1cccc(Cl)c1)(C(=O)O)CC2`
Output: 1.84

Input: Quick one: `C[C@H]1Cc2nccc(OC[C@H](C)C[C@H]3Cc4ccccc4[C@]34CC[C@@](Nc3cccc(Cl)c3)(C(=O)O)CC4)c2[C@H](C)C1`
Output: 4.05

Input: Quick one: CC(C)(COc1ccnc2sccc12)CC1Cc2ccccc2C12CCC(Nc1cccc(Cl)c1)(C(=O)O)CC2 (single isomer, unassigned) [Example 623]
Output: 2320

Input: Quick one: `C[C@@H](COc1ccnc2c1[C@H](C)CCC2)C[C@H]1Cc2cc3c(cc2[C@]12CC[C@@](Nc1cccc(Cl)c1)(C(=O)O)CC2)O[C@H](C)CO3`
Output: 0.0118

Input: Quick one: `C[C@@H](COc1ccnc2c1[C@H](C)CCC2)C[C@H]1Cc2ccccc2[C@]12CC[C@@](Nc1ccc(F)c(Br)c1)(C(=O)O)CC2`
Output: 0.439

Input: Quick one: `Cc1ccc2c(c1)C[C@H](C[C@@H](C)COc1ccnc3c1[C@H](C)CCC3)[C@]21CC[C@](Nc2cccc(Cl)c2)(C(=O)O)CC1`
Output: 0.0917
